# Study system: KRasG12C (M1-K169, biotinylated on the N-terminus) (Homo sapiens (Human), UniProt P01116, G12C)
# Test protocol: Covalent competition assay (scintillation proximity assay, competition with radiolabeled covalent probe Compound B)
# Format: binding
# Experimental parameters: in vitro KRASG12C activity; 10 nM KRasG12C:GDP, 25 nM radio-ligand and 475 nM unlabelled ligand, incubated 2 hours; read-out: Covalent Competition Assay IC50
Readout label: IC50

C=CC(=O)N1CC2(CC(n3nc(-c4ccc5nn(CCN(C)C)cc5c4)c(-c4c(Cl)c(C)cc5[nH]ncc45)c3C)C2)C1 (single isomer, unassigned) [Example 16b]
23.4 µM
C=CC(=O)N1CC2(CC(n3nc(-c4cccc(=O)n4C)c(-c4c(Cl)ccc5[nH]ncc45)c3C)C2)C1 (single isomer, unassigned) [Example 91a]
5.3 µM

Kindly review the next molecule as well.
Q: Entry C=CC(=O)N1CC2(CC(n3nc(-c4cccnc4C)c(-c4c(Cl)c(C)cc5[nH]ncc45)c3C(F)F)C2)C1 (single isomer, unassigned) [Example 84b] : reported IC50 = ?
A: > 50 µM

====

# Study system: KRasG12C (M1-K169, biotinylated on the N-terminus) (Homo sapiens (Human), UniProt P01116, G12C)
# Test protocol: Covalent competition assay (scintillation proximity assay, competition with radiolabeled covalent probe Compound B)
# Format: binding
# Experimental parameters: in vitro KRASG12C activity; 10 nM KRasG12C:GDP, 25 nM radio-ligand and 475 nM unlabelled ligand, incubated 2 hours; read-out: Covalent Competition Assay IC50
Could you please report measured IC50 for the items listed next?
Answers are plain numbers, in µM.

Some solved entries appear below for comparison.
C=CC(=O)N1CC2(CC(n3nc(-c4ccc5nn(CCN6CC(OC)C6)cc5c4)c(-c4c(Cl)c(C)cc5[nH]ncc45)c3C)C2)C1 (single isomer, unassigned) [Example 82a]
0.012
C=CC(=O)N1CC2(CC(n3nc(-c4ccc5c(cnn5C)c4)c(-c4c(Cl)c(C)cc5[nH]ncc45)c3C)C2)C1 (single isomer, unassigned)
0.017

Q: Entry C=CC(=O)N1CC2(CC(n3nc(-c4cc5ccncc5[nH]4)c(-c4c(Cl)c(C)cc5[nH]ncc45)c3C)C2)C1 (single isomer, unassigned) [Example 59a] : reported IC50 = ?
A: 0.173

====

Could you please report measured log10 IC50 for the items listed next?
# Study system: KRasG12C (M1-K169, biotinylated on the N-terminus) (Homo sapiens (Human), UniProt P01116, G12C)
# Test protocol: Covalent competition assay (scintillation proximity assay, competition with radiolabeled covalent probe Compound B)
# Assay type: binding
# Experimental parameters: in vitro KRASG12C activity; 10 nM KRasG12C:GDP, 25 nM radio-ligand and 475 nM unlabelled ligand, incubated 2 hours; read-out: Covalent Competition Assay IC50
// units: nM (pre-log); metric: IC50; scale: log10

C=CC(=O)N1CC2(CC(n3nc(-c4cc(C)nn4CCN(C)C)c(-c4c(Cl)c(C)cc5[nH]ncc45)c3C)C2)C1 (single isomer, unassigned) [Example 92a]
3.15
C=CC(=O)N1CC2(CC(n3nc(-c4ccc5[nH]ncc5c4)c(-c4c(Cl)c(C)cc5[nH]ncc45)c3C)C2)C1 (single isomer, unassigned) [Example 12a]
1.38
C=CC(=O)N1CC2(CC(n3nc(-c4ccc(C(=O)N(C)CC(C)(C)O)cc4)c(-c4c(Cl)c(C)cc5[nH]ncc45)c3C)C2)C1 (single isomer, unassigned) [Example 67b]
4.08
C=CC(=O)N1CC2(CC(n3nc(-c4ccc5nn(CCN(C)C)cc5c4)c(-c4c(Cl)c(C)cc5[nH]ncc45)c3C)C2)C1 (single isomer, unassigned) [Example 16a]
1.04
C=CC(=O)N1CC2(CC(n3nc(-c4ccc5nn(CCN6CC[C@H](F)C6)cc5c4)c(-c4c(Cl)c(C)cc5[nH]ncc45)c3C)C2)C1 (single isomer, unassigned) [Example 80a]
3.11
C=CC(=O)N1CC2(CC(n3nc(-c4ccc5c(c4)CCN5CCOC)c(-c4c(Cl)c(C)cc5[nH]ncc45)c3C)C2)C1 (single isomer, unassigned) [Example 44a]
1.28
C=CC(=O)N1CC2(CC(n3nc(-c4ccc5c(c4)N(C)CC(=O)O5)c(-c4c(Cl)c(C)cc5[nH]ncc45)c3C)C2)C1 (single isomer, unassigned) [Example 32a]
2.94

Q: Entry C=CC(=O)N1CC2(CC(n3nc(-c4ccc(-n5nccc5N)nc4)c(-c4c(Cl)c(C)cc5[nH]ncc45)c3C)C2)C1 (single isomer, unassigned) [Example 7a] : reported log10 IC50 = ?
A: 2.21
